- target-desc: T1, cynomolgus CD30L expressed on HEK293 cells (cynomolgus, UniProt A0A7N9CVX7 1-234)
- T1 construct: whole, on cells; also called HEK293-cyCD30L; HEK-cyCD30L
- T1 sequence: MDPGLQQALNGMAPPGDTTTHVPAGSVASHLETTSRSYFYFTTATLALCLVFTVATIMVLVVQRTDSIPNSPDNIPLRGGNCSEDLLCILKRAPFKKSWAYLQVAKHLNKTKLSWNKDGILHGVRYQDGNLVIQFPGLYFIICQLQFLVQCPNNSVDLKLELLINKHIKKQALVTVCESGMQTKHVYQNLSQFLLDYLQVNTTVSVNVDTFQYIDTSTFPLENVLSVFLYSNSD
- test-protocol: flow cytometry, blocking of CD30-Fc on HEK293-cyCD30L cells; competitor CD30-Fc
quantity: IC50 (nM)
One number for each entry, in nM.

binder	IC50 (nM)
anti-CD30L Reference 1 antibody (antibody, human IgG1, lambda, V domains shown) VH: QVQLQESGPGLVKPSETLSLTCTVSGGSISSYIWSWIRQPAGKGLEWIGRIYASGNTNYNPSLKSRVTISVDTSKNQFSLKLSSMTAADTAVYYCARDYRVAGTYYYYYGLDVWGQGTTVTVSS VL: QSALTQPASVSGSPGQSITISCTGTSSDVGVYDYVSWYQQHPGKAPKLMIYEVSNRPSGVSNRFSGSKSGNTASLTISGLQTEDEADYYCSSYTSRSTWVFGGGTKLTVLG	0.73
anti-CD30L antibody clone 1 (antibody, V domains shown, also called clone 1 parental) VH: QVQLQESGPGLVKPSETLSLTCTVSGGSISGYYWSWIRQPPVKGLEWIGYIFYSGYTKYNPSLKSRVTISVDTSKNQFSLKLSSVTAADTAVYYCARDRWDFDYWGQGALVTVSS VL: AIQMTQSPSYLSASVGDRVTIACRASQGIRNNLGWYQQKPGKAPKLLIYAESSLQSGVPSRFSGSGSGTDFTLTISSLQPEDFATYYCLQDFNYPYTFGQGTKLEIK	0.51
anti-CD30L antibody clone 2 germlined (antibody, V domains shown, also called germlined clone 2) VH: EVQLVESGGGLVQPGRSLRLSCAASGFNFDDYAMHWVRQAPGKGLEWVSGISWRSGNIGYADSVKGRFTISRDNAKNSLYLQMNSLRAEDTALYYCAKDKGIGFNWNYEGFDYWGQGTLVTVSS VL: DIQMTQSPSSLSASVGDRVTITCRASQGISNHLAWFQQKPGKAPKSLIYAASSLQSGVPSRFSGSGSGTDFTLTISSLQPEDFATYYCQQYVTYPLTFGGGTKVEIK	0.34

// next entry
For the binder anti-CD30L antibody clone 2 (antibody, V domains shown, also called clone 2 parental) VH: EVQLVESGGGLVQPGRSLRLSCAASGFNFDDYAMHWVRQAPGKGLEWVSGISWRSGNIGYAGSVKGRFTISRDNAKNSLYLQMNSLRPEDSALYYCAKDKGIGFNWNYEGFDYWGQGTLVTVSS VL: DIQMTQSPSSLSASVGDRVTITCRASQGISNHLAWFQQKPGKAPKSLIYAASSLQSGVPSKFSGSGSGTDFTLTISSLQPEDFATYYCQQYVTYPLTFGGGTKVEIK , what IC50 is on record?
0.34
